Examples of compounds with documented Hepatotoxicity (cytolytic) follow.
# conditionParameters: human
Simply state the number, no unit and no words.

>>> df
                                   compound                  metricname  readoutvalue
0  CC/C=C(\C(=O)N[C@@H]1C(=O)N2C(C(=O)OCOC(=O)C(C)(C)C)=C(COC(N)=O)CS[C@H]12)c1csc(N)n1  Hepatotoxicity (cytolytic)             0
1  COc1cc2nc(N3CCN(C(=O)C4CCCO4)CC3)nc(N)c2cc1OC (centres undefined)  Hepatotoxicity (cytolytic)             0
2  COCC(=O)Nc1c(I)c(C(=O)NCC(O)CO)c(I)c(C(=O)N(C)CC(O)CO)c1I (centres undefined) [IOPROMIDE]  Hepatotoxicity (cytolytic)             1
3  CCc1nc(N)nc(N)c1-c1ccc(Cl)cc1.COc1ncnc(NS(=O)(=O)c2ccc(N)cc2)c1OC  Hepatotoxicity (cytolytic)             5
4  CCC1NC(=O)c2cc(S(N)(=O)=O)c(Cl)cc2N1 (centres undefined)  Hepatotoxicity (cytolytic)             0
5  CCCC1C(=O)N2C(N(C)C)=Nc3ccc(C)cc3N2C1=O (centres undefined)  Hepatotoxicity (cytolytic)             0
6  CC(=N)N1CC[C@H](SC2=C(C(=O)O)N3C(=O)[C@H]([C@@H](C)O)[C@H]3C2)C1.O=C(O)CCNC(=O)c1ccccc1  Hepatotoxicity (cytolytic)             0
7  CO[C@H]1O[C@@H]2O[C@@]3(C)CC[C@H]4[C@H](C)CC[C@@H]([C@H]1C)[C@@]24OO3  Hepatotoxicity (cytolytic)             0
8  COCCCN1CCC(NC(=O)c2cc(Cl)c(N)c3c2OCC3)CC1 [PRUCALOPRIDE]  Hepatotoxicity (cytolytic)             0
9  C[C@]12CC[C@@H]3c4ccc(OS(=O)(=O)O)cc4CC[C@H]3[C@@H]1CCC2=O  Hepatotoxicity (cytolytic)             0

Entry CC1(C)S[C@@H]2[C@H](NC(=O)[C@H](N)c3ccc(O)cc3)C(=O)N2[C@H]1C(=O)O has what Hepatotoxicity (cytolytic)?
2

Here is the next compound: CCOC(=O)[C@H](CCc1ccccc1)N[C@H]1CCCN2CCC[C@@H](C(=O)O)N2C1=O
0

Here is the next compound: Cc1cnc(C(=O)NCCc2ccc(S(=O)(=O)NC(=O)NC3CCCCC3)cc2)cn1 [GLIPIZIDE]
3

Here is the next compound: COc1ccc2c(c1)c(CC(=O)O)c(C)n2C(=O)c1ccc(Cl)cc1
8

* * *

Examples of molecules with documented Hepatotoxicity (acute) follow.
# methodSummary: Highest frequency of acute liver toxicity observed during clinical trials, expressed as a percentage. [column '% AIGUE' in source]
# conditionParameters: human
The reply should be a number in %, with the unit left off.

molecule	Hepatotoxicity (acute), %
CC1(C)S[C@@H]2[C@H](NC(=O)Cc3ccccc3)C(=O)N2[C@H]1C(=O)O [PENICILLIN G]	0
CN(C)CC/C=C1/c2ccccc2Sc2ccc(Cl)cc21 [CHLORPROTHIXENE]	0
CCS(=O)(=O)CCn1c([N+](=O)[O-])cnc1C [TINIDAZOLE]	0
CCc1ccc(CCOc2ccc(CC3SC(=O)NC3=O)cc2)nc1 (stereo unspecified) [PIOGLITAZONE]	0
CN(C)[C@@H]1C(O)=C(C(N)=O)C(=O)[C@@]2(O)C(O)=C3C(=O)c4c(O)ccc(Cl)c4[C@@H](O)[C@H]3C[C@@H]12 [DEMECLOCYCLINE]	0

Now look at this one.
Entry CO/N=C(\C(=O)N[C@@H]1C(=O)N2C(C(=O)OCOC(=O)C(C)(C)C)=C(Cn3nnc(C)n3)CS[C@H]12)c1csc(N)n1 has what Hepatotoxicity (acute)?
0

* * *

# conditionParameters: human, serum
Label class 1 when Hepatotoxicity (moderate) is at or above 1; otherwise label class 0.

Record excerpt, results attached:
molecule	discreteLabel
C[C@]12CC[C@@H]3c4ccc(O)cc4CC[C@H]3[C@@H]1CC[C@@H]2O [ESTRADIOL]	class 0
CC[C@H](C)C[C@H](C)CCCCCCCCC(=O)N[C@H]1C[C@@H](O)[C@@H](NCCN)NC(=O)[C@@H]2[C@@H](O)CCN2C(=O)[C@H]([C@H](O)CCN)NC(=O)[C@H]([C@H](O)[C@@H](O)c2ccc(O)cc2)NC(=O)[C@@H]2C[C@@H](O)CN2C(=O)[C@H]([C@@H](C)O)NC1=O [CASPOFUNGIN]	class 1
CC(=O)[C@@]1(O)CC[C@H]2[C@@H]3CCC4=CC(=O)CC[C@]4(C)[C@H]3CC[C@@]21C [HYDROXYPROGESTERONE]	class 0
Cc1cc(O)c(C(=O)N[C@@H](C(=O)N[C@@H]2C(=O)N3C(C(=O)O)=C(CSc4nnnn4C)CS[C@H]23)c2ccc(O)cc2)cn1 [CEFPIRAMIDE]	class 1
O=C1NC(=S)NC(=O)C1C(=O)Nc1ccccc1 [MERBARONE]	class 1

Has O=c1[nH]c2ccccc2n1CCCN1CCN(C(c2ccccc2)c2ccccc2)CC1 [OXATOMIDE] a recorded Hepatotoxicity (moderate) greater than or equal to 1?
class 1

Here is the next molecule: CC1(C)S[C@@H]2[C@H](NC(=O)C(c3ccccc3)S(=O)(=O)O)C(=O)N2[C@H]1C(=O)O (some centres not stated) [SULBENICILLIN]
class 1

Here is the next molecule: O=C1Nc2ccc(Cl)cc2C(c2ccccc2)=NC1O (configuration not stated) [OXAZEPAM]
class 0

Here is the next molecule: COc1cc2c(cc1OC)C(=O)C(CC1CCN(Cc3ccccc3)CC1)C2 (configuration not stated) [DONEPEZIL]
class 0

* * *

# conditionParameters: human, serum
Label yes (1) when Hepatotoxicity (moderate) is at or above 2; otherwise label no (0).

Record excerpt, results attached:
compound	discreteLabel
CCC1=C(C[C@H]2NCCc3cc(OC)c(OC)cc32)C[C@H]2c3cc(OC)c(OC)cc3CCN2C1 [DEHYDROEMETINE]	no (0)
Cc1noc(NS(=O)(=O)c2ccc(N)cc2)c1C [SULFISOXAZOLE]	no (0)

With those in mind, consider the next compound.
Has O=C(O)c1cn(C2CC2)c2cc(N3CCNCC3)c(F)cc2c1=O [CIPROFLOXACIN] a recorded Hepatotoxicity (moderate) greater than or equal to 2?
yes (1)

* * *

Examples of compounds with documented Hepatotoxicity (time to onset) follow.
# methodSummary: Times to onset, minimal and maximal, observed in the indexed observations. [column 'DELAI' in source]
# conditionParameters: human

In [3]: df
Out[3]:
                                   compound                      metricname      readoutvalue
0           Cc1c(C(C)C)c(=O)n(-c2ccccc2)n1C  Hepatotoxicity (time to onset)  2 days - 2 years
1  Cn1nnnc1SCC1=C(C(=O)O)N2C(=O)[C@@H](NC(=O)[C@H](O)c3ccccc3)[C@H]2SC1  Hepatotoxicity (time to onset)            4 days
2  CN(N=O)C(=O)N[C@@H](C=O)[C@@H](O)[C@H](O)[C@H](O)CO  Hepatotoxicity (time to onset)  4 days - 6 weeks

Entry CC(NC(C)(C)C)C(=O)c1cccc(Cl)c1 (configuration not stated) has what Hepatotoxicity (time to onset)?
4 days - 80 days

Here is the next compound: Nc1nc(O)c2ncn(COC(CO)CO)c2n1
1 week - 26 days

Here is the next compound: C[C@]12CC[C@H]3[C@@H](CCC4=CC(=O)CC[C@@H]43)[C@@H]1CC[C@@H]2O
4 months - 12 years

* * *

# methodSummary: Times to onset, minimal and maximal, observed in the indexed observations. [column 'DELAI' in source]
# conditionParameters: human
metricName: Hepatotoxicity (time to onset)

Consider the reported Hepatotoxicity (time to onset) for these compounds:
compound	readoutValue
[Li] [LITHIUM]	2 days - 2 months
Nc1nnc(-c2cccc(Cl)c2Cl)c(N)n1 [LAMOTRIGINE]	5 days - 3 months
CS[C@H]1SC[C@H]2C(=O)N(C)[C@@H](C(C)C)C(=O)OC[C@@H](NC(=O)c3cnc4ccccc4n3)C(=O)N[C@@H](C)C(=O)N(C)[C@@H]1C(=O)N(C)[C@@H](C(C)C)C(=O)OC[C@@H](NC(=O)c1cnc3ccccc3n1)C(=O)N[C@@H](C)C(=O)N2C [ECHINOMYCIN]	4 days - 19 days
Cc1nc2n(c(=O)c1CCN1CCC(c3noc4cc(F)ccc34)CC1)CCCC2 [RISPERIDONE]	2 days - 1 year
C[C@H]1COc2c(N3CCN(C)CC3)c(F)cc3c(=O)c(C(=O)O)cn1c23.C[C@H]1COc2c(N3CCN(C)CC3)c(F)cc3c(=O)c(C(=O)O)cn1c23.O [LEVOFLOXACIN]	2 days - 3 weeks
NC(N)=Nc1nc(CSCCC(N)=NS(N)(=O)=O)cs1 [FAMOTIDINE]	3 days - 3 weeks

Entry C/C=C(/CC)C(=O)NC(N)=O has what Hepatotoxicity (time to onset)?
3 weeks

Here is the next compound: O=C(O)CCC(=O)c1ccc(-c2ccccc2)cc1 [FENBUFEN]
10 days - 2 weeks

Here is the next compound: Cc1ccc(C(=O)Nc2ccc(S(=O)(=O)O)c3cc(S(=O)(=O)O)cc(S(=O)(=O)O)c23)cc1NC(=O)c1cccc(NC(=O)Nc2cccc(C(=O)Nc3cc(C(=O)Nc4ccc(S(=O)(=O)O)c5cc(S(=O)(=O)O)cc(S(=O)(=O)O)c45)ccc3C)c2)c1 [SURAMIN]
1 week - 8 months
